Entries and their measured Activity follow.
Test system: Lolium rigidum
ASSAY_EXPLANATION: Pre-emergence herbicidal activity against Lolium rigidum seeds assessed as root length at 0.1 mol/l at 25 degC after 72 hr by laboratory-based agar medium bioassay relative to control
Format: functional
MEASURED_ATTRIBUTE: Activity (%)

>>> numeric_value("CC(C)[C@]12CC[C@@](C)(O1)[C@H](O)C2 (racemic) [2-Exo-hydroxy-1,4-cineole]")
6.1
>>> numeric_value("CC(=O)O")
0
>>> numeric_value("CC(C)(C)CC(=O)O")
0
>>> numeric_value("CC1(C)O[C@]2(C)CC[C@@H]1[C@@H](O)C2 (racemic) [3-exo-hydroxy-1,8-cineole]")
16.6
>>> numeric_value("CC(C)(C)CC(=O)O[C@H]1C[C@@]2(C)CC[C@H]1C(C)(C)O2 (racemic) [3-exo-t-butylacetoxy-1,8-cineole]")
64.9
>>> numeric_value("CCCCCC(=O)O [HEXANOATE]")
0
>>> numeric_value("CC1(C)O[C@]2(C)CC[C@@H]1[C@@H](OC(=O)c1ccccc1)C2 (racemic) [3-exo-benzoxy-1,8-cineole]")
10.9
>>> numeric_value("CC(=O)O[C@H]1C[C@@]2(C)CC[C@H]1C(C)(C)O2 (racemic) [3-Exo-acetoxy-1,8-cineole]")
7.6
>>> numeric_value("CC1(C)OC2(C)CC[C@H]1C[C@H]2O (single isomer, unassigned) [2-endo-hydroxy-1,8-cineole]")
39.5
>>> numeric_value("CC(=O)O[C@@H]1C[C@@]2(C(C)C)CC[C@@]1(C)O2 (racemic) [2-exo-acetoxy-1,4-cineole]")
0
>>> numeric_value("CC12CCC(C(=O)C1)C(C)(C)O2 (racemic)")
18.9
>>> numeric_value("O=C(O)c1ccccc1")
0
>>> numeric_value("CCCC(=O)O")
0
>>> numeric_value("CC(C)[C@]12CC[C@@](C)(O1)[C@H](OC(=O)c1ccccc1)C2 (racemic) [2-exo-benzoxy-1,4-cineole]")
28

* * *

Test system: Radish
ASSAY_EXPLANATION: Pre-emergence herbicidal activity against Raphanus sativus var.Long scarlet (radish) seeds assessed as shoot length at 0.1 mol/l at 25 degC after 72 hr by laboratory-based agar medium bioassay relative to control
Type: functional
MEASURED_ATTRIBUTE: Activity (%)

>>> numeric_value("CC12CCC(C(=O)C1)C(C)(C)O2 (racemic)")
29.3
>>> numeric_value("CCCCCC(=O)O [HEXANOATE]")
0
>>> numeric_value("CC(C)(C)CC(=O)O[C@H]1C[C@@]2(C)CC[C@H]1C(C)(C)O2 (racemic) [3-exo-t-butylacetoxy-1,8-cineole]")
90.9
>>> numeric_value("CC1(C)O[C@]2(C)CC[C@@H]1[C@@H](O)C2 (racemic) [3-exo-hydroxy-1,8-cineole]")
46.5
>>> numeric_value("CC(=O)O[C@@H]1C[C@@]2(C(C)C)CC[C@@]1(C)O2 (racemic) [2-exo-acetoxy-1,4-cineole]")
0
>>> numeric_value("CCCC(=O)O")
0
>>> numeric_value("CC(=O)O[C@H]1C[C@@]2(C)CC[C@H]1C(C)(C)O2 (racemic) [3-Exo-acetoxy-1,8-cineole]")
64.3
>>> numeric_value("Cc1ccccc1CO[C@@H]1C[C@@]2(C(C)C)CCC1(C)O2")
62.5
>>> numeric_value("CC(C)(C)CC(=O)O")
0

* * *

System: Radish
ASSAY_EXPLANATION: Pre-emergence herbicidal activity against Raphanus sativus var.Long scarlet (radish) seeds assessed as root length at 0.1 mol/l at 25 degC after 72 hr by laboratory-based agar medium bioassay relative to control
Type: functional
MEASURED_ATTRIBUTE: Activity (%)

>>> numeric_value("CC(C)(C)CC(=O)O[C@H]1C[C@@]2(C)CC[C@H]1C(C)(C)O2 (racemic) [3-exo-t-butylacetoxy-1,8-cineole]")
72.5
>>> numeric_value("CC(=O)O [ACETIC ACID]")
0
>>> numeric_value("CC(C)[C@]12CC[C@@](C)(O1)[C@H](OC(=O)c1ccccc1)C2 (racemic) [2-exo-benzoxy-1,4-cineole]")
54.7
>>> numeric_value("CC1(C)O[C@]2(C)CC[C@@H]1[C@@H](OC(=O)c1ccccc1)C2 (racemic) [3-exo-benzoxy-1,8-cineole]")
42.4
>>> numeric_value("CC(C)[C@]12CC[C@@](C)(O1)[C@H](OC(=O)CC(C)(C)C)C2 (racemic) [2-exo-t-butylacetoxy-1,4-cineole]")
55.8
>>> numeric_value("CC1(C)O[C@]2(C)CC[C@@H]1[C@@H](O)C2 (racemic) [3-exo-hydroxy-1,8-cineole]")
26.8
>>> numeric_value("CC1(C)OC2(C)CC[C@H]1C[C@H]2O (single isomer, unassigned) [2-endo-hydroxy-1,8-cineole]")
6.8
>>> numeric_value("Cc1ccccc1CO[C@@H]1C[C@@]2(C(C)C)CCC1(C)O2 [CINMETHYLIN]")
36.5
>>> numeric_value("CC(C)(C)CC(=O)O [T-BUTYLACETIC ACID]")
0
>>> numeric_value("CC(=O)O[C@@H]1C[C@@]2(C(C)C)CC[C@@]1(C)O2 (racemic) [2-exo-acetoxy-1,4-cineole]")
2.7
>>> numeric_value("CCCC(=O)O [BUTYRIC ACID]")
0
>>> numeric_value("O=C(O)c1ccccc1 [BENZOIC ACID]")
0
>>> numeric_value("CC(=O)O[C@H]1C[C@@]2(C)CC[C@H]1C(C)(C)O2 (racemic) [3-Exo-acetoxy-1,8-cineole]")
29.2
>>> numeric_value("CC(C)[C@]12CC[C@@](C)(O1)[C@H](O)C2 (racemic) [2-Exo-hydroxy-1,4-cineole]")
9.9
>>> numeric_value("CC12CCC(C(=O)C1)C(C)(C)O2 (racemic) [3-oxo-1,8-cineole]")
20.5
>>> numeric_value("CCCCCC(=O)O [HEXANOATE]")
0

* * *

Test system: Lolium rigidum
ASSAY_EXPLANATION: Pre-emergence herbicidal activity against Lolium rigidum seeds assessed as concentration required to suppress root growth at 25 degC after 72 hr by laboratory-based agar medium bioassay
Format: functional
MEASURED_ATTRIBUTE: Activity

>>> result("CC(=O)O")
"0.01 mol/L"
>>> result("CCCC(=O)O")
"0.01 mol/L"
>>> result("CC(=O)O[C@H]1C[C@@]2(C)CC[C@H]1C(C)(C)O2 (racemic) [3-Exo-acetoxy-1,8-cineole]")
"0.1 mol/L"
>>> result("CC(C)[C@]12CC[C@@](C)(O1)[C@H](OC(=O)CC(C)(C)C)C2 (racemic) [2-exo-t-butylacetoxy-1,4-cineole]")
"0.01 mol/L"
>>> result("CC(C)(C)CC(=O)O[C@H]1C[C@@]2(C)CC[C@H]1C(C)(C)O2 (racemic) [3-exo-t-butylacetoxy-1,8-cineole]")
"0.01 mol/L"
>>> result("CC1(C)OC2(C)CC[C@H]1C[C@H]2O (single isomer, unassigned) [2-endo-hydroxy-1,8-cineole]")
"0.1 mol/L"
>>> result("CC12CCC(C(=O)C1)C(C)(C)O2 (racemic)")
"0.1 mol/L"
>>> result("O=C(O)c1ccccc1")
"0.0001 mol/L"
>>> result("CC(C)(C)CC(=O)O")
"0.0001 mol/L"

* * *

System: Lolium rigidum
ASSAY_EXPLANATION: Pre-emergence herbicidal activity against Lolium rigidum seeds assessed as shoot length at 0.1 mol/l at 25 degC after 72 hr by laboratory-based agar medium bioassay relative to 1,8-Cineole
Format: functional
This section presents compounds with their documented Ratio values.
MEASURED_ATTRIBUTE: Ratio

>>> numeric_value("CC(C)[C@]12CC[C@@](C)(O1)[C@H](OC(=O)c1ccccc1)C2 (racemic) [2-exo-benzoxy-1,4-cineole]")
1.2
>>> numeric_value("CC(C)[C@]12CC[C@@](C)(O1)[C@H](O)C2 (racemic) [2-Exo-hydroxy-1,4-cineole]")
1.2
>>> numeric_value("CC12CCC(C(=O)C1)C(C)(C)O2 (racemic) [3-oxo-1,8-cineole]")
1.6
>>> numeric_value("CC1(C)O[C@]2(C)CC[C@@H]1[C@@H](O)C2 (racemic) [3-exo-hydroxy-1,8-cineole]")
2.8
>>> numeric_value("CC(C)(C)CC(=O)O[C@H]1C[C@@]2(C)CC[C@H]1C(C)(C)O2 (racemic) [3-exo-t-butylacetoxy-1,8-cineole]")
0.6
>>> numeric_value("CC1(C)OC2(C)CC[C@H]1C[C@H]2O (single isomer, unassigned) [2-endo-hydroxy-1,8-cineole]")
1.8
>>> numeric_value("CC(=O)O[C@H]1C[C@@]2(C)CC[C@H]1C(C)(C)O2 (racemic) [3-Exo-acetoxy-1,8-cineole]")
1.3
>>> numeric_value("CC1(C)O[C@]2(C)CC[C@@H]1[C@@H](OC(=O)c1ccccc1)C2 (racemic) [3-exo-benzoxy-1,8-cineole]")
0.7

* * *

Test system: Radish
ASSAY_EXPLANATION: Pre-emergence herbicidal activity against Raphanus sativus var.Long scarlet (radish) seeds assessed as shoot length at 0.1 mol/l at 25 degC after 72 hr by laboratory-based agar medium bioassay relative to control
Assay type: functional
Known Activity of a selection of compounds
MEASURED_ATTRIBUTE: Activity (%)

>>> numeric_value("CC1(C)OC2(C)CC[C@H]1C[C@H]2O (single isomer, unassigned) [2-endo-hydroxy-1,8-cineole]")
0
>>> numeric_value("CC(=O)O")
0
>>> numeric_value("CC1(C)O[C@]2(C)CC[C@@H]1[C@@H](OC(=O)c1ccccc1)C2 (racemic) [3-exo-benzoxy-1,8-cineole]")
61
>>> numeric_value("O=C(O)c1ccccc1")
0
>>> numeric_value("CC(C)[C@]12CC[C@@](C)(O1)[C@H](O)C2 (racemic) [2-Exo-hydroxy-1,4-cineole]")
41.7
>>> numeric_value("CC(C)[C@]12CC[C@@](C)(O1)[C@H](OC(=O)CC(C)(C)C)C2 (racemic) [2-exo-t-butylacetoxy-1,4-cineole]")
71.2
>>> numeric_value("CC(C)[C@]12CC[C@@](C)(O1)[C@H](OC(=O)c1ccccc1)C2 (racemic) [2-exo-benzoxy-1,4-cineole]")
64

Sourced from ChEMBL document CHEMBL3045579
